Target: acetylcholine receptor
Experiment: SPR, AchR immobilised on CM5 chip, peptide at 10 uM
Measured metric: Binding affinity (RU)

As a guide, the following entries are already answered.
Binder: KIWEK [5mer-884]
Unit name: RU
Result number: 28
--
Binder: RFMKK [5mer-855]
Unit name: RU
Result number: 18
--
Binder: RRWVYK [6mer-1-459]
Unit name: RU
Result number: 131

[1] KKQRQK [6mer-1-404]
[2] RKMDK [5mer-1189]
Between 1 and 2 , which one shows the larger Binding affinity (RU) value? Refer to your chosen item by its label in the answer.
1
(1: 137 RU, 2: 11 RU)
